test system: Escherichia coli TOP10; experiment: shrunken log2 fold change of peptide-encoding DNA abundance (4.5 h post-induction vs induction); higher = less antimicrobial activity (less host growth inhibition); details: time post-induction: 4.5 h; library: site-saturation at positions 5, 18, 19, 20
Where shrunken log2 fold change equals or exceeds -0.1, the correct label is MET; where it does not, the label is NOT MET.

Ask: State whether the measured shrunken log2 fold change reaches -0.1, counting equality as reaching it, for RRIRYRPPRLPRPRPRPHEMPRP
Result: MET

Ask: Can you check RRIRPRPPRLPRPRPRPTNSPRP next?
Result: NOT MET

Ask: Try this sequence too: RRIRYRPPRLPRPRPRPCMTPRP
Result: NOT MET

Ask: For RRIRHRPPRLPRPRPRPEAPPRP then?
Result: MET

Ask: Another sequence: RRIRMRPPRLPRPRPRPNCKPRP
Result: MET

Ask: Next up: RRIRDRPPRLPRPRPRPACQPRP
Result: MET

Ask: // query: RRIRMRPPRLPRPRPRPRFGPRP
Result: MET

Ask: Likewise for RRIRRRPPRLPRPRPRPNMMPRP ?
Result: NOT MET

Ask: And for RRIRARPPRLPRPRPRPSIDPRP ?
Result: MET

Ask: Please give the result for RRIRVRPPRLPRPRPRPCPRPRP too.
Result: MET

Ask: Param item: RRIRVRPPRLPRPRPRPMYTPRP
Result: NOT MET

Ask: Cool, now RRIRHRPPRLPRPRPRPDPLPRP
Result: NOT MET

Ask: One more sequence: RRIRERPPRLPRPRPRPGDGPRP
Result: MET

Ask: Would you kindly repeat that for RRIRRRPPRLPRPRPRPYAWPRP ?
Result: MET

* * *

system: Escherichia coli TOP10; assay: shrunken log2 fold change of peptide-encoding DNA abundance (4.5 h post-induction vs induction); higher = less antimicrobial activity (less host growth inhibition); conditions: time post-induction: 4.5 h; library: site-saturation at positions 5, 18, 19, 20
Please provide measured shrunken log2 fold change for the entries that follow.
// no unit string in output, number only

Ask: Using the record for RRIRPRPPRLPRPRPRPITMPRP , report its shrunken log2 fold change.
Result: -0.238

Ask: Next sequence: RRIRVRPPRLPRPRPRPECTPRP
Result: 0.464

Ask: Try the sequence RRIRKRPPRLPRPRPRPVAEPRP
Result: 0.973

Ask: Now the sequence RRIRSRPPRLPRPRPRPYTFPRP
Result: -1.01

Ask: Follow-up item: RRIRYRPPRLPRPRPRPMFTPRP
Result: -0.629

Ask: Continue with RRIRWRPPRLPRPRPRPHVIPRP
Result: -0.13

Ask: Input RRIRERPPRLPRPRPRPRTSPRP
Result: 0.0838

Ask: Also need RRIRDRPPRLPRPRPRPSNHPRP , thanks.
Result: -0.548

Ask: Record: RRIRQRPPRLPRPRPRPLRPPRP
Result: 0.699

Ask: What do we get for RRIRMRPPRLPRPRPRPGGMPRP ?
Result: 0.789

Ask: Same question, RRIRRRPPRLPRPRPRPCKCPRP this time
Result: -0.01

Ask: Same for RRIRWRPPRLPRPRPRPMRCPRP
Result: 0.353

Ask: How about RRIRGRPPRLPRPRPRPVWTPRP ?
Result: 0.674

Ask: Same read-out for RRIRHRPPRLPRPRPRPMYWPRP ?
Result: -0.222

Ask: Another: RRIRKRPPRLPRPRPRPCPSPRP
Result: -0.0812

Ask: Queued: RRIRTRPPRLPRPRPRPAGVPRP
Result: 0.107

Ask: Repeat with RRIRDRPPRLPRPRPRPEKQPRP
Result: 0.0247

Ask: Queued: RRIRWRPPRLPRPRPRPVANPRP
Result: 0.0636

Ask: Field entry: RRIRHRPPRLPRPRPRPRKSPRP
Result: 0.119

Ask: // same read-out, input: RRIRIRPPRLPRPRPRPKDNPRP
Result: -0.606

Ask: Same thing, different sequence: RRIRERPPRLPRPRPRPWLSPRP
Result: 0.0694

Ask: Note, next up: RRIRKRPPRLPRPRPRPCNVPRP
Result: -0.192

Ask: And then RRIRTRPPRLPRPRPRPECYPRP , what is it?
Result: -0.0535

Ask: Quick one: RRIRCRPPRLPRPRPRPKKQPRP
Result: 0.155

Ask: What do you get for RRIRRRPPRLPRPRPRPEAQPRP ?
Result: 0.253

Ask: Field entry: RRIRDRPPRLPRPRPRPVSAPRP
Result: 0.666

Ask: Next up: RRIRPRPPRLPRPRPRPIHIPRP
Result: -0.405

Ask: Also check RRIRYRPPRLPRPRPRPFFCPRP
Result: -0.644

Ask: Try RRIRMRPPRLPRPRPRPFRLPRP next.
Result: -0.1

Ask: Also RRIRWRPPRLPRPRPRPPKFPRP , if possible.
Result: 0.419

Ask: Same again, this time with RRIRMRPPRLPRPRPRPACVPRP
Result: 0.428

Ask: Now consider RRIRLRPPRLPRPRPRPGFVPRP and answer again.
Result: 0.487

* * *

test system: Escherichia coli TOP10; test: shrunken log2 fold change of peptide-encoding DNA abundance (4.5 h post-induction vs induction); higher = less antimicrobial activity (less host growth inhibition); details: time post-induction: 4.5 h; library: site-saturation at positions 5, 18, 19, 20
Decide using shrunken log2 fold change: a value greater than or equal to -0.2 is Y, a smaller one is N.

Ask: Quick check, shrunken log2 fold change >= -0.2? RRIRQRPPRLPRPRPRPGGVPRP
Result: Y

Ask: Also RRIRDRPPRLPRPRPRPVAFPRP , if possible.
Result: Y

Ask: Next record, please: RRIRHRPPRLPRPRPRPRLQPRP
Result: Y

Ask: Also need RRIRNRPPRLPRPRPRPSMAPRP , thanks.
Result: Y

Ask: What do we get for RRIRTRPPRLPRPRPRPMVYPRP ?
Result: Y

Ask: Repeat for the following sequence: RRIRFRPPRLPRPRPRPEFAPRP
Result: Y

Ask: Can you handle RRIRERPPRLPRPRPRPVRHPRP next?
Result: Y

Ask: Let us now turn to RRIRDRPPRLPRPRPRPKCKPRP
Result: Y

Ask: Another sequence to check: RRIRRRPPRLPRPRPRPSSQPRP
Result: N

Ask: Query RRIRLRPPRLPRPRPRPEQLPRP next
Result: Y

Ask: Please give the result for RRIRNRPPRLPRPRPRPDMDPRP too.
Result: Y

Ask: Also, RRIRARPPRLPRPRPRPECKPRP please.
Result: Y

Ask: Also check RRIRRRPPRLPRPRPRPHKMPRP
Result: Y

Ask: Now consider RRIRRRPPRLPRPRPRPFIPPRP .
Result: N

Ask: For RRIRYRPPRLPRPRPRPLPHPRP then?
Result: N

* * *

tested on: Escherichia coli TOP10; assay: shrunken log2 fold change of peptide-encoding DNA abundance (4.5 h post-induction vs induction); higher = less antimicrobial activity (less host growth inhibition); details: time post-induction: 4.5 h; library: site-saturation at positions 5, 18, 19, 20;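 further: peptides expressed intracellularly from a pBAD plasmid library in pooled LB shake-flask culture, induced with 0.3% L-arabinose, DNA abundance read by NGS, three biological replicates, DESeq2 with apeglm shrinkage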
shrunken log2 fold change of 0.02 or higher: yes (1). Under 0.02: no (0).

Ask: Can RRIRPRPPRLPRPRPRPDFIPRP be said to have shrunken log2 fold change at or above 0.02?
Result: no (0)

Ask: How about this sequence: RRIRQRPPRLPRPRPRPVKFPRP
Result: no (0)

Ask: Also, RRIRSRPPRLPRPRPRPDIGPRP please.
Result: no (0)

Ask: Can you handle RRIRQRPPRLPRPRPRPPYDPRP next?
Result: no (0)

Ask: Here is the next sequence: RRIRPRPPRLPRPRPRPFTGPRP
Result: no (0)

Ask: Moving on to the next sequence: RRIRCRPPRLPRPRPRPYREPRP
Result: no (0)

Ask: What do you get for RRIRRRPPRLPRPRPRPNKLPRP ?
Result: no (0)

Ask: Could you do the same for RRIRCRPPRLPRPRPRPVMAPRP , please?
Result: no (0)

Ask: What would you report for RRIRERPPRLPRPRPRPSGCPRP ?
Result: yes (1)

Ask: Repeat with RRIRLRPPRLPRPRPRPIVTPRP
Result: yes (1)

Ask: Next sequence up: RRIRDRPPRLPRPRPRPQNMPRP
Result: no (0)

Ask: Also RRIRVRPPRLPRPRPRPNFWPRP , if possible.
Result: yes (1)

Ask: Entry RRIRNRPPRLPRPRPRPWMAPRP please
Result: no (0)

Ask: Same read-out for RRIRVRPPRLPRPRPRPGYAPRP ?
Result: yes (1)

Ask: What do you get for RRIRHRPPRLPRPRPRPESWPRP ?
Result: no (0)

Ask: How about this sequence: RRIRSRPPRLPRPRPRPIDTPRP
Result: no (0)

Ask: Cool, now RRIRSRPPRLPRPRPRPWMPPRP
Result: no (0)

Ask: Continue with RRIRCRPPRLPRPRPRPIQPPRP
Result: no (0)

Ask: Next record, please: RRIRNRPPRLPRPRPRPKCLPRP
Result: yes (1)

Ask: Next record, please: RRIRGRPPRLPRPRPRPEGQPRP
Result: yes (1)

Ask: Queued: RRIRMRPPRLPRPRPRPFLCPRP
Result: no (0)

Ask: Repeat with RRIRERPPRLPRPRPRPHQEPRP
Result: no (0)

Ask: Subsequent entry: RRIRSRPPRLPRPRPRPGQYPRP
Result: no (0)

Ask: Same for RRIRHRPPRLPRPRPRPKMWPRP
Result: yes (1)

Ask: Also need RRIRFRPPRLPRPRPRPAQYPRP , thanks.
Result: no (0)

Ask: Same read-out for RRIRPRPPRLPRPRPRPTGAPRP ?
Result: yes (1)

Ask: And then RRIRFRPPRLPRPRPRPDIEPRP , what is it?
Result: yes (1)

Ask: Record: RRIRGRPPRLPRPRPRPWNVPRP
Result: no (0)

Ask: Next: RRIRCRPPRLPRPRPRPHSFPRP
Result: no (0)

Ask: // repeat for RRIRDRPPRLPRPRPRPLARPRP and report
Result: yes (1)

Ask: What about this sequence? RRIRQRPPRLPRPRPRPSEQPRP
Result: yes (1)

Ask: Param item: RRIRHRPPRLPRPRPRPKCVPRP
Result: no (0)
